Assignment: determine reported relative enzymatic activity for the given compounds.
- SYSTEM_NAME: GlmU (UniProt A7ZTU1)
- Sequence (A7ZTU1 whole entry, looked up): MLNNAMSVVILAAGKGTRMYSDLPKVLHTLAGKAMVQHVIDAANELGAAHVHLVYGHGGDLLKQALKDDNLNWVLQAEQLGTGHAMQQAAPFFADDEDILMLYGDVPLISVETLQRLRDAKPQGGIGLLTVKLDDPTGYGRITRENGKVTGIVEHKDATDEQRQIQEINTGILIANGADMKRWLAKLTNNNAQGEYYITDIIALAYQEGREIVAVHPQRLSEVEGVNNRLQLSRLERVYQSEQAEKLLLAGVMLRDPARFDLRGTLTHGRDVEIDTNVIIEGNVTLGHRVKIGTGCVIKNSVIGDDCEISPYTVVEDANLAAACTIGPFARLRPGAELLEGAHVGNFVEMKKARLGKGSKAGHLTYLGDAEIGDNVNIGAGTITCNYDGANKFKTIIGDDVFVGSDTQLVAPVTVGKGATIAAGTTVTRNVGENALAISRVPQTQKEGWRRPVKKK
- EXPERIMENTAL_DETAILS: relative enzymatic activity vs untreated control (fraction); higher = less inhibition
- CONDITION_SET: 100 µM; incubation time: 2 h at 37 C

-- ask I have this compound here, O=C(NC(CO)C(O)c1ccc([N+](=O)[O-])cc1)C(Cl)Cl (stereo unspecified) , and I need its recorded relative enzymatic activity.
-- reply 0.972

-- ask Record request: relative enzymatic activity value, item O=c1[nH]c(=O)n(C2CC(O)C(CO)O2)cc1F (stereo unspecified)
-- reply 1.09

-- ask I am curious: what relative enzymatic activity value has been reported for `N[C@@H](C(=O)N[C@@H]1C(=O)N2C(C(=O)O)=C(Cl)CC[C@H]12)c1ccccc1` ?
-- reply 1

-- ask Given the compound COC1C=COC2(C)Oc3c(C)c(O)c4c(O)c(c5c(nc6cc(C)ccn65)c4c3C2=O)NC(=O)C(C)=CC=CC(C)C(O)C(C)C(O)C(C)C(OC(C)=O)C1C (stereo unspecified) , what is its reported relative enzymatic activity?
-- reply 0.746

-- ask Given the compound `O=C1OCCN1N=Cc1ccc([N+](=O)[O-])o1` , what is its reported relative enzymatic activity?
-- reply 0.974

-- ask Return reported relative enzymatic activity; argument: CC1CN(c2c(F)c(F)c3c(=O)c(C(=O)O)cn(C4CC4)c3c2F)CC(C)N1 (stereo unspecified)
-- reply 0.97

-- ask // lookup relative enzymatic activity for CON=C1CN(c2nc3c(cc2F)c(=O)c(C(=O)O)cn3C2CC2)CC1CN.CS(=O)(=O)O (stereo unspecified)
-- reply 0.919

-- ask What does the data say about its relative enzymatic activity? Entry: `CN(C)c1cc(CNCC(C)(C)C)c(O)c2c1C[C@H]1C[C@H]3[C@H](N(C)C)C(=O)[C@H](C(N)=O)C(=O)[C@@]3(O)C(=O)[C@@H]1C2=O`
-- reply 0.988

-- ask What value of relative enzymatic activity has been recorded for this entry: CON=C(C(=O)NC1C(=O)N2C(C(=O)O)=C(CSC(=O)c3ccco3)CSC12)c1csc(N)n1.Cl (stereo unspecified)
-- reply 0.844

-- ask Please report the recorded relative enzymatic activity for CON=C(C(=O)NC1C(=O)N2C(C(=O)[O-])=C(CSc3nc(=O)c([O-])nn3C)CSC12)c1csc(N)n1.O.O.O.[Na+].[Na+] (stereo unspecified) .
-- reply 0.996

-- ask Recorded relative enzymatic activity for `O=c1[nH]c(=O)n([C@@H]2C[C@@H](O)[C@@H](CO)O2)cc1F` , please?
-- reply 1.03

-- ask State the recorded relative enzymatic activity for this entry: CNC1C(O)C(NC)C2OC3(O)C(=O)CC(C)OC3OC2C1O.Cl.Cl (stereo unspecified)
-- reply 1.02

-- ask Query: relative enzymatic activity; subject: `C/C(=C\C(=O)OCCCCCCCCC(=O)O)C[C@@H]1OC[C@H](C[C@@H]2O[C@H]2[C@@H](C)[C@H](C)O)[C@@H](O)[C@H]1O`
-- reply 0.999

-- ask Dear colleague, I am looking for the recorded relative enzymatic activity of the following compound: CCC(C)C1NC(=O)C(CCNCS(=O)(=O)[O-])NC(=O)C(NC(=O)C(CCNCS(=O)(=O)[O-])NC(=O)C(NC(=O)C(CCNCS(=O)(=O)[O-])NC(=O)CCCCC(C)C)C(C)O)CCNC(=O)C(C(C)O)NC(=O)C(CCNCS(=O)(=O)[O-])NC(=O)C(CCNCS(=O)(=O)[O-])NC(=O)C(C(C)CC)NC1=O.[Na+].[Na+].[Na+].[Na+].[Na+] (stereo unspecified)
-- reply 0.983

-- ask Need relative enzymatic activity of `CN1CCN(c2c(F)cc3c(=O)c(C(=O)O)cn(CCF)c3c2F)CC1` , thanks.
-- reply 1.16

-- ask Look up relative enzymatic activity: `Cn1sccc1=O`
-- reply 0.622

-- ask Which relative enzymatic activity value is on record for `CN1CCN(c2cc3c(cc2F)c(=O)c(C(=O)O)cn3-c2ccc(F)cc2)CC1.Cl` ?
-- reply 0.957

-- ask Return reported relative enzymatic activity; argument: `Cc1cn([C@H]2C[C@H](N=[N+]=[N-])[C@@H](CO)O2)c(=O)[nH]c1=O`
-- reply 0.944

-- ask # query: relative enzymatic activity of entry `CC(=O)On1cc(F)c(=O)[nH]c1=O`
-- reply 0.977

-- ask relative enzymatic activity for O=C([O-])C1=C(CSc2nnnn2CS(=O)(=O)[O-])CSC2C(NC(=O)C(O)c3ccccc3)C(=O)N12.[Na+].[Na+] (stereo unspecified) ?
-- reply 1.1

-- ask Could you share which relative enzymatic activity value was measured for Nc1ncn(C2OC(CO)C(O)C2O)c(=O)n1 (stereo unspecified) ?
-- reply 1.14

-- ask Which relative enzymatic activity is listed for `O=C1OC(=O)[C@H]2[C@@H]1[C@H]1CC[C@H]2O1` ?
-- reply 1.07

-- ask Name the reported relative enzymatic activity value associated with the compound NCC1OC(OC2C(N)CC(N)C(OC3OC(CO)C(O)C(N)C3O)C2O)C(N)C(O)C1O.O=S(=O)(O)O (stereo unspecified)
-- reply 0.956

-- ask Item `NC(=O)[C@@H]1CC[C@@H]2CN1C(=O)N2OS(=O)(=O)O` has what recorded relative enzymatic activity?
-- reply 0.998

-- ask Need relative enzymatic activity of CCN1CCN(C(=O)NC(C(=O)NC2C(=O)N3C(C(=O)O)=C(CSc4nnnn4C)CSC23)c2ccc(O)cc2)C(=O)C1=O (stereo unspecified) , thanks.
-- reply 1.09

-- ask Requested read-out: relative enzymatic activity. Entry: `CCn1cc(C(=O)O)c(=O)c2cc(F)c(N3CCNCC3)cc21`
-- reply 1.01

-- ask Quick one: relative enzymatic activity of `C[C@H]1c2cccc(O)c2C(=O)C2=C(O)[C@]3(O)C(=O)[C@@H](C(N)=O)C(=O)[C@@H](N(C)C)[C@@H]3[C@@H](O)[C@@H]21` ?
-- reply 0.934

-- ask Quick one: relative enzymatic activity for CCC1OC(=O)C(C)C(OC2CC(C)(OC)C(O)C(C)O2)C(C)C(OC2OC(C)CC(N(C)C)C2O)C(C)(O)CC(C)CN(C)C(C)C(O)C1(C)O (stereo unspecified) ?
-- reply 1.09

-- ask Fill in: relative enzymatic activity of C=CC1=C(C(=O)O)N2C(=O)C(NC(=O)C(=NO)c3csc(N)n3)C2SC1 (stereo unspecified) is ___
-- reply 0.976

-- ask Reported relative enzymatic activity, compound `CCOC(=O)CCC(=O)O[C@H]1[C@H](O[C@@H]2[C@@H](C)[C@H](O[C@H]3C[C@@](C)(OC)[C@@H](O)[C@H](C)O3)[C@@H](C)C(=O)O[C@H](CC)[C@@](C)(O)[C@H](O)[C@@H](C)C(=O)[C@H](C)C[C@@]2(C)O)O[C@H](C)C[C@@H]1N(C)C` : ____
-- reply 1.02

-- ask Which relative enzymatic activity value belongs to `CC[C@H]1OC(=O)C[C@@H](O)[C@H](C)[C@@H](O[C@@H]2O[C@H](C)C[C@H](N(C)C)[C@H]2O)[C@@H](CC=O)C[C@@H](C)C(=O)/C=C/[C@]2(C)O[C@H]2[C@@H]1C` ?
-- reply 1
